Test system: influenza A virus (H3N2)
Experiment: Inhibition of influenza virus H3N2 replication by CPE in MDCK
Format: cell-based
Conditions: MDCK cells
Reported Property: EC50 (nM)
Give bare numbers, in nM.

The examples below pair each entry with its known result.
{"columns": ["Molecule", "Reported Property", "Numeric Result"],
 "data": [
  ["O=c1nc(NO)ccn1[C@@H]1O[C@H](CO)[C@@H](O)[C@H]1O [NHC, β-d-N4-hydroxycytidine]", "EC50", 770],
  ["CC(=O)OC[C@@]1(F)O[C@@H](n2ccc(=O)[nH]c2=O)[C@@H]2OC(=O)O[C@@H]21", "EC50", 540],
  ["O=C1O[C@H]2[C@H](n3ccc(=O)[nH]c3=O)O[C@](F)(COC(=O)C3CC3)[C@H]2O1", "EC50", 1380]
]}

# evaluate next
Give recorded EC50. O=C1O[C@H]2[C@H](n3ccc(=O)[nH]c3=O)O[C@](F)(CO)[C@H]2O1
370

----------
Assay: in vitro
Conditions: human
Reported Property: CC50

The examples below pair each entry with its known result.
{"columns": ["Query Smiles", "Result"],
 "data": [
  ["O=C1O[C@H]2[C@H](n3ccc(=O)[nH]c3=O)O[C@](F)(COC(=O)C3CC3)[C@H]2O1", "> 10 µM"],
  ["[2H]c1cc([C@]2(C#N)O[C@H](CO)[C@@H](O)[C@H]2O)n2ncnc(N)c12", "> 10 µM"]
]}

Give recorded CC50. CCCCCCCCCCCCCCCC(=O)OC[C@@]1(F)O[C@@H](n2ccc(=O)[nH]c2=O)[C@@H]2OC(=O)O[C@@H]21
> 10 µM

----------
Experiment: Cytotoxicity in Huh7 cells (no viral infection)
Type: cell-based
Conditions: human, without viral infection, read-out: HCoV OC43 (Huh7) CC50
I'd be grateful if you could share measured CC50 for these entries.

// batch mode: one CC50 value per listed entry
1. N#C[C@@]1(c2ccc3c(N)ncnn23)O[C@H](CO)[C@@H](O)[C@H]1O
2. [2H]c1cc([C@]2(C#N)O[C@H](CO)[C@@H](O)[C@H]2O)n2ncnc(N)c12

1. > 10 µM
2. > 10 µM

----------
I'd be grateful if you could share measured pEC50 for these entries.
Test system: influenza A virus (H3N2)
Assay: Inhibition of influenza virus H3N2 replication by CPE in MDCK
Format: cell-based
Conditions: MDCK cells
pEC50: −log10 of the molar value.

// batch mode: one pEC50 value per listed entry
1. CC(C)[C@H](N)C(=O)OC[C@@]1(F)O[C@@H](n2ccc(=O)[nH]c2=O)[C@@H]2OC(=O)O[C@@H]21
2. O=c1ccn([C@@H]2O[C@](F)(CO)[C@@H](O)[C@H]2O)c(=O)[nH]1 [Compound B1-N, reference compound]
3. CC(C)C(=O)OC[C@@]1(F)O[C@@H](n2ccc(=O)[nH]c2=O)[C@@H]2OC(=O)O[C@@H]21

["> 6.30", "> 6.00", "< 5.00"]

// batch mode: one pEC50 value per listed entry
1. CCCCCCCCCCCCCCCC(=O)OC[C@@]1(F)O[C@@H](n2ccc(=O)[nH]c2=O)[C@@H]2OC(=O)O[C@@H]21
2. CC(C)C(=O)OC[C@H]1O[C@@H](n2ccc(NO)nc2=O)[C@@H]2OC(=O)O[C@@H]21

1: > 6.30; 2: < 5.00
